- target.or.test.system: CaM (Bos taurus, UniProt P62157)
- Construct: made in house; host or cells: E. coli BL21 (DE3)
- test: Pull-down assay with immobilized protein and LSM libraries
- Type: binding, bovine
- experimental.setup: H14 library; 1:2 stoichiometry assumed; read-out: Surface mapping KD (apparent)
Entries annotated with measured Kd
Kindly provide the numeric value in µM only, without the unit symbol.

For orientation, consider the following solved cases.
>>> recorded_value("NCCCC[C@@H](CC(=O)N[C@H]1CCCC[C@@H]1C(=O)N[C@H]1CCCC[C@@H]1C(=O)N[C@@H](CC(N)=O)CC(=O)N[C@H]1CCCC[C@@H]1C(N)=O)NC(=O)[C@H]1CCCC[C@@H]1N [H14 KN]")
455
>>> recorded_value("CC(C)C[C@@H](CC(=O)N[C@H]1CCCC[C@@H]1C(N)=O)NC(=O)[C@H]1CCCC[C@@H]1NC(=O)[C@H]1CCCC[C@@H]1NC(=O)C[C@H](Cc1c[nH]c2ccccc12)NC(=O)[C@H]1CCCC[C@@H]1N [H14 WL]")
1
>>> recorded_value("NC(=O)[C@H]1CCCC[C@@H]1NC(=O)C[C@H](Cc1ccc(O)cc1)NC(=O)[C@H]1CCCC[C@@H]1NC(=O)[C@H]1CCCC[C@@H]1NC(=O)C[C@H](Cc1ccc(O)cc1)NC(=O)[C@H]1CCCC[C@@H]1N [H14 YY]")
7

Kindly consider the entry below.
Query: Record request: Kd value, item NCCCC[C@@H](CC(=O)N[C@H]1CCCC[C@@H]1C(=O)N[C@H]1CCCC[C@@H]1C(=O)N[C@H](CC(=O)N[C@H]1CCCC[C@@H]1C(N)=O)Cc1c[nH]c2ccccc12)NC(=O)[C@H]1CCCC[C@@H]1N [H14 KW]
Result: 3

----------
- target.or.test.system: Gal-1 (Homo sapiens, UniProt P09382)
- Construct: made in house; host or cells: E. coli BL21(DE3)
- Sequence (P09382 whole entry): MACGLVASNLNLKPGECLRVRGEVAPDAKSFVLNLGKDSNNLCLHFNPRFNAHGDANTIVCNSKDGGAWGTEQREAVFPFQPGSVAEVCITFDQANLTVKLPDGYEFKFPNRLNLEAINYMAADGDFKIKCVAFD
- test: Competition pull-down with lactose
- Type: binding
- experimental.setup: H14 library; lactose 10 mM; read-out: Surface mapping KD (apparent), competition
measured.attribute: Kd (µM)
Kindly provide the numeric value in µM only, without the unit symbol.

For orientation, consider the following solved cases.
>>> recorded_value("CC[C@H](C)[C@@H](CC(=O)N[C@H]1CCCC[C@@H]1C(N)=O)NC(=O)[C@H]1CCCC[C@@H]1NC(=O)[C@H]1CCCC[C@@H]1NC(=O)C[C@@H](NC(=O)[C@H]1CCCC[C@@H]1N)[C@@H](C)O")
266
>>> recorded_value("CSCC[C@@H](CC(=O)N[C@H]1CCCC[C@@H]1C(N)=O)NC(=O)[C@H]1CCCC[C@@H]1NC(=O)[C@H]1CCCC[C@@H]1NC(=O)C[C@H](Cc1ccc(O)cc1)NC(=O)[C@H]1CCCC[C@@H]1N")
133
>>> recorded_value("NC(=O)[C@H]1CCCC[C@@H]1NC(=O)C[C@H](CO)NC(=O)[C@H]1CCCC[C@@H]1NC(=O)[C@H]1CCCC[C@@H]1NC(=O)C[C@H](CCC(=O)O)NC(=O)[C@H]1CCCC[C@@H]1N")
282
>>> recorded_value("CC[C@H](C)[C@@H](CC(=O)N[C@H]1CCCC[C@@H]1C(N)=O)NC(=O)[C@H]1CCCC[C@@H]1NC(=O)[C@H]1CCCC[C@@H]1NC(=O)C[C@H](Cc1c[nH]c2ccccc12)NC(=O)[C@H]1CCCC[C@@H]1N")
105

Kindly consider the entry below.
Query: Record request: Kd value, item `CC[C@H](C)[C@@H](CC(=O)N[C@H]1CCCC[C@@H]1C(=O)N[C@H]1CCCC[C@@H]1C(=O)N[C@H](CC(=O)N[C@H]1CCCC[C@@H]1C(N)=O)C(C)C)NC(=O)[C@H]1CCCC[C@@H]1N`
Result: 114

----------
- target.or.test.system: S100B (Homo sapiens, UniProt P04271)
- Construct: made in house; host or cells: Escherichia coli BL21(DE3)
- Sequence (P04271 whole entry): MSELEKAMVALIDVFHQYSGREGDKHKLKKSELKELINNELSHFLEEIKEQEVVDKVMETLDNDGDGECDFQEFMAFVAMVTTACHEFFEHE
- test: Pull-down assay with immobilized protein and LSM libraries
- Format: binding
- experimental.setup: H12 library; 1:1 binding assumed; read-out: Surface mapping KD (apparent)
measured.attribute: pKd
A value of pKd is the negative decimal logarithm of a concentration given in moles per litre.

For orientation, consider the following solved cases.
>>> recorded_value("NC(=O)CC[C@@H](CC(=O)N[C@H]1CCC[C@@H]1C(=O)N[C@H]1CCC[C@@H]1C(N)=O)NC(=O)[C@H]1CCC[C@@H]1NC(=O)[C@H]1CCC[C@@H]1NC(=O)C[C@H](Cc1ccc(O)cc1)NC(=O)[C@H]1CCC[C@@H]1NC(=O)[C@H]1CCC[C@@H]1N")
3.65
>>> recorded_value("CC(C)C[C@@H](CC(=O)N[C@H]1CCC[C@@H]1C(=O)N[C@H]1CCC[C@@H]1C(N)=O)NC(=O)[C@H]1CCC[C@@H]1NC(=O)[C@H]1CCC[C@@H]1NC(=O)C[C@H](CC(C)C)NC(=O)[C@H]1CCC[C@@H]1NC(=O)[C@H]1CCC[C@@H]1N")
4.34
>>> recorded_value("C[C@@H](CC(=O)N[C@H]1CCC[C@@H]1C(=O)N[C@H]1CCC[C@@H]1C(N)=O)NC(=O)[C@H]1CCC[C@@H]1NC(=O)[C@H]1CCC[C@@H]1NC(=O)C[C@H](Cc1ccc(O)cc1)NC(=O)[C@H]1CCC[C@@H]1NC(=O)[C@H]1CCC[C@@H]1N")
4.02

Query: Record request: pKd value, item `NC(=O)C[C@@H](CC(=O)N[C@H]1CCC[C@@H]1C(=O)N[C@H]1CCC[C@@H]1C(=O)N[C@H](CC(=O)N[C@H]1CCC[C@@H]1C(=O)N[C@H]1CCC[C@@H]1C(N)=O)Cc1ccccc1)NC(=O)[C@H]1CCC[C@@H]1NC(=O)[C@H]1CCC[C@@H]1N`
Result: 3.43

Query: Record request: pKd value, item `N=C(N)NCCC[C@@H](CC(=O)N[C@H]1CCC[C@@H]1C(=O)N[C@H]1CCC[C@@H]1C(=O)N[C@@H](CCCCN)CC(=O)N[C@H]1CCC[C@@H]1C(=O)N[C@H]1CCC[C@@H]1C(N)=O)NC(=O)[C@H]1CCC[C@@H]1NC(=O)[C@H]1CCC[C@@H]1N`
Result: 3.84

Query: Record request: pKd value, item `CC(C)C[C@@H](CC(=O)N[C@H]1CCC[C@@H]1C(=O)N[C@H]1CCC[C@@H]1C(N)=O)NC(=O)[C@H]1CCC[C@@H]1NC(=O)[C@H]1CCC[C@@H]1NC(=O)C[C@H](CO)NC(=O)[C@H]1CCC[C@@H]1NC(=O)[C@H]1CCC[C@@H]1N`
Result: 3.38

Query: Record request: pKd value, item `CSCC[C@@H](CC(=O)N[C@H]1CCC[C@@H]1C(=O)N[C@H]1CCC[C@@H]1C(=O)N[C@H](CC(=O)N[C@H]1CCC[C@@H]1C(=O)N[C@H]1CCC[C@@H]1C(N)=O)C(C)C)NC(=O)[C@H]1CCC[C@@H]1NC(=O)[C@H]1CCC[C@@H]1N`
Result: 3.90

Query: Record request: pKd value, item `C[C@@H](O)[C@@H](CC(=O)N[C@H]1CCC[C@@H]1C(=O)N[C@H]1CCC[C@@H]1C(N)=O)NC(=O)[C@H]1CCC[C@@H]1NC(=O)[C@H]1CCC[C@@H]1NC(=O)C[C@H](CCCNC(=N)N)NC(=O)[C@H]1CCC[C@@H]1NC(=O)[C@H]1CCC[C@@H]1N`
Result: 3.88

Query: Record request: pKd value, item `CC[C@H](C)[C@@H](CC(=O)N[C@H]1CCC[C@@H]1C(=O)N[C@H]1CCC[C@@H]1C(N)=O)NC(=O)[C@H]1CCC[C@@H]1NC(=O)[C@H]1CCC[C@@H]1NC(=O)C[C@H](CC(C)C)NC(=O)[C@H]1CCC[C@@H]1NC(=O)[C@H]1CCC[C@@H]1N`
Result: 4.43

Query: Record request: pKd value, item `CC(C)C[C@@H](CC(=O)N[C@H]1CCC[C@@H]1C(=O)N[C@H]1CCC[C@@H]1C(=O)N[C@H](CC(=O)N[C@H]1CCC[C@@H]1C(=O)N[C@H]1CCC[C@@H]1C(N)=O)C(C)C)NC(=O)[C@H]1CCC[C@@H]1NC(=O)[C@H]1CCC[C@@H]1N`
Result: 3.94

Query: Record request: pKd value, item `N=C(N)NCCC[C@@H](CC(=O)N[C@H]1CCC[C@@H]1C(=O)N[C@H]1CCC[C@@H]1C(=O)N[C@@H](CC(N)=O)CC(=O)N[C@H]1CCC[C@@H]1C(=O)N[C@H]1CCC[C@@H]1C(N)=O)NC(=O)[C@H]1CCC[C@@H]1NC(=O)[C@H]1CCC[C@@H]1N`
Result: 3.66

Query: Record request: pKd value, item `NCCCC[C@@H](CC(=O)N[C@H]1CCC[C@@H]1C(=O)N[C@H]1CCC[C@@H]1C(N)=O)NC(=O)[C@H]1CCC[C@@H]1NC(=O)[C@H]1CCC[C@@H]1NC(=O)C[C@H](CCCCN)NC(=O)[C@H]1CCC[C@@H]1NC(=O)[C@H]1CCC[C@@H]1N`
Result: 3.75

Query: Record request: pKd value, item `N=C(N)NCCC[C@@H](CC(=O)N[C@H]1CCC[C@@H]1C(=O)N[C@H]1CCC[C@@H]1C(N)=O)NC(=O)[C@H]1CCC[C@@H]1NC(=O)[C@H]1CCC[C@@H]1NC(=O)C[C@H](CCC(N)=O)NC(=O)[C@H]1CCC[C@@H]1NC(=O)[C@H]1CCC[C@@H]1N`
Result: 3.49

Query: Record request: pKd value, item `NC(=O)[C@H]1CCC[C@@H]1NC(=O)[C@H]1CCC[C@@H]1NC(=O)C[C@H](CO)NC(=O)[C@H]1CCC[C@@H]1NC(=O)[C@H]1CCC[C@@H]1NC(=O)C[C@H](Cc1ccccc1)NC(=O)[C@H]1CCC[C@@H]1NC(=O)[C@H]1CCC[C@@H]1N`
Result: 3.51

Query: Record request: pKd value, item `CC(C)[C@@H](CC(=O)N[C@H]1CCC[C@@H]1C(=O)N[C@H]1CCC[C@@H]1C(N)=O)NC(=O)[C@H]1CCC[C@@H]1NC(=O)[C@H]1CCC[C@@H]1NC(=O)C[C@H](CCCCN)NC(=O)[C@H]1CCC[C@@H]1NC(=O)[C@H]1CCC[C@@H]1N`
Result: 3.71
